# credit: PubChem BioAssay

# TEST_PROTOCOL: resazurin metabolic signal in HepG2 cells – cell-based, resazurin fluorescence, 24 h, PK04 Diversity Set, profiling panel (AID 1172); note: test concentration not given here
# COND: HepG2 viability, higher = more signal
Rule for this label: true means z-score is less than -0.9; false means z-score is at least -0.9.

IN: Is z-score strictly under -0.9 for the entry COC(=O)c1ccc(OC)c(/C=C\CC(CCc2ccccc2)OC(C)=O)c1 (stereo not given) ?
OUT: true

IN: Is z-score strictly under -0.9 for the entry NC(=O)[C@H]1[C@@H]2C(=O)O[C@@H](c3ccccc3)[C@@H](c3ccccc3)N2[C@@H](c2ccc(O)cc2)[C@]12C(=O)Nc1ccc(C#CC3(O)CCCCCC3)cc12 ?
OUT: false

IN: Is z-score strictly under -0.9 for the entry COc1ccccc1CN1C(=O)c2ccccc2[C@@H](C(=O)NCC(C)C)[C@@H]1c1ccc(CO)cc1 ?
OUT: true

IN: Is z-score strictly under -0.9 for the entry COCCOC(=O)N1C(=O)[C@@]2(c3cc(C#CC4(O)CCCCCC4)ccc31)[C@H](C(=O)N1CCN(c3ncccn3)CC1)[C@H]1C(=O)O[C@H](c3ccccc3)[C@H](c3ccccc3)N1[C@@H]2c1ccc(O)cc1 ?
OUT: false

IN: Is z-score strictly under -0.9 for the entry O=C1NC(=O)C2C1C=CC(C(O)c1ccc(-c3ccccc3)s1)N2Nc1ccccn1 (stereo not given) ?
OUT: true
